B1: Copper-transporting ATPase 2 (Homo sapiens), P35670 (parent)
chain: MPEQERQITAREGASRKILSKLSLPTRAWEPAMKKSFAFDNVGYEGGLDGLGPSSQVATSTVRILGMTCQSCVKSIEDRISNLKGIISMKVSLEQGSATVKYVPSVVCLQQVCHQIGDMGFEASIAEGKAASWPSRSLPAQEAVVKLRVEGMTCQSCVSSIEGKVRKLQGVVRVKVSLSNQEAVITYQPYLIQPEDLRDHVNDMGFEAAIKSKVAPLSLGPIDIERLQSTNPKRPLSSANQNFNNSETLGHQGSHVVTLQLRIDGMHCKSCVLNIEENIGQLLGVQSIQVSLENKTAQVKYDPSCTSPVALQRAIEALPPGNFKVSLPDGAEGSGTDHRSSSSHSPGSPPRNQVQGTCSTTLIAIAGMTCASCVHSIEGMISQLEGVQQISVSLAEGTATVLYNPSVISPEELRAAIEDMGFEASVVSESCSTNPLGNHSAGNSMVQTTDGTPTSVQEVAPHTGRLPANHAPDILAKSPQSTRAVAPQKCFLQIKGMTCASCVSNIERNLQKEAGVLSVLVALMAGKAEIKYDPEVIQPLEIAQFIQDLGFEAAVMEDYAGSDGNIELTITGMTCASCVHNIESKLTRTNGITYASVALATSKALVKFDPEIIGPRDIIKIIEEIGFHASLAQRNPNAHHLDHKMEIKQWKKSFLCSLVFGIPVMALMIYMLIPSNEPHQSMVLDHNIIPGLSILNLIFFILCTFVQLLGGWYFYVQAYKSLRHRSANMDVLIVLATSIAYVYSLVILVVAVAEKAERSPVTFFDTPPMLFVFIALGRWLEHLAKSKTSEALAKLMSLQATEATVVTLGEDNLIIREEQVPMELVQRGDIVKVVPGGKFPVDGKVLEGNTMADESLITGEAMPVTKKPGSTVIAGSINAHGSVLIKATHVGNDTTLAQIVKLVEEAQMSKAPIQQLADRFSGYFVPFIIIMSTLTLVVWIVIGFIDFGVVQRYFPNPNKHISQTEVIIRFAFQTSITVLCIACPCSLGLATPTAVMVGTGVAAQNGILIKGGKPLEMAHKIKTVMFDKTGTITHGVPRVMRVLLLGDVATLPLRKVLAVVGTAEASSEHPLGVAVTKYCKEELGTETLGYCTDFQAVPGCGIGCKVSNVEGILAHSERPLSAPASHLNEAGSLPAEKDAVPQTFSVLIGNREWLRRNGLTISSDVSDAMTDHEMKGQTAILVAIDGVLCGMIAIADAVKQEAALAVHTLQSMGVDVVLITGDNRKTARAIATQVGINKVFAEVLPSHKVAKVQELQNKGKKVAMVGDGVNDSPALAQADMGVAIGTGTDVAIEAADVVLIRNDLLDVVASIHLSKRTVRRIRINLVLALIYNLVGIPIAAGVFMPIGIVLQPWMGSAAMAASSVSVVLSSLQLKCYKKPDLERYEAQAHGHMKPLTASQVSVHIGMDDRWRDSPRATPWDQVSYVSQVSLSSLTSDKPSRHSAAADDDGDKWSLLLNGRDEEQYI

Variants of: B1
Conditions: with comd1_human COMMD1, Q8N668
Sequence (Q8N668 whole entry): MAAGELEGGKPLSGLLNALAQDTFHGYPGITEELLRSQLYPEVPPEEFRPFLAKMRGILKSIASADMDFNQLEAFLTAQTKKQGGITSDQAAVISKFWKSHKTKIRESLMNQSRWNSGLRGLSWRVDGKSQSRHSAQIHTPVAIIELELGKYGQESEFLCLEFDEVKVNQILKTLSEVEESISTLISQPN
measurement-name: effect of a mutation on the interaction

L492S; with no effect
L641S; with no effect
